tested on: SK-ES-1; experiment: relative viability vs DMSO control (72 h) (fraction); higher = more viable cells; conditions: 0.00457 µM
measured parameter: relative viability
// keep it numeric: no unit symbol after the value

Q: Which relative viability is reported for this compound? CCN1CCN(Cc2ccc(Nc3ncc(F)c(-c4cc(F)c5nc(C)n(C(C)C)c5c4)n3)nc2)CC1
Result: 1

Q: Which relative viability is reported for this compound? COc1cc2/c(=N/c3ccc(Br)cc3F)nc[nH]c2cc1OCC1CCN(C)CC1
Result: 1.03

Q: Which relative viability is reported for this compound? CNC(=O)c1ccc(-c2cnc3ncc(Cc4ccc5ncccc5c4)n3n2)cc1F
Result: 1.08

Q: Which relative viability is reported for this compound? Cn1cnc2c(F)c(Nc3ccc(Br)cc3F)c(C(=O)NOCCO)cc21
Result: 0.984

Q: Which relative viability is reported for this compound? O=C(Nc1cnn2ccc(N3CCC[C@@H]3c3cc(F)ccc3F)nc12)N1CC[C@H](O)C1
Result: 1.04

Q: Which relative viability is reported for this compound? Cc1cc(Nc2ncnc3ccc(NC4=NC(C)(C)CO4)cc23)ccc1Oc1ccn2ncnc2c1
Result: 1.1

Q: Which relative viability is reported for this compound? C=CC(=O)N1CCC([C@@H]2CCNc3c(C(N)=O)c(-c4ccc(Oc5ccccc5)cc4)nn32)CC1
Result: 0.984

Q: Which relative viability is reported for this compound? CN1CCN(c2ccc3nc(-c4c(N)c5c(F)cccc5[nH]c4=O)[nH]c3c2)CC1
Result: 1.03

Q: Which relative viability is reported for this compound? Cn1cc(-c2cc3c(N4CCN(c5ncc([C@@](C)(N)c6ccc(F)cc6)cn5)CC4)ncnn3c2)cn1
Result: 1
